The reported measurements were obtained from PubChem BioAssay.

- protocol.details: probe aWnt5a binding to arrayed compounds – biochemical, biotinylated probe, 635/667 nm fluorescence, primary screen (AID 1113);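 note: score merges 667 nm fluorescence intensity with signal-to-noise per printed feature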
- run.parameters: small-molecule microarray, higher = more signal
Each entry below lists one item and its recorded composite z-score value.
Lab note: record just the number, no unit beside it.

{"smiles.text": "CC(C)C(=C=CC[C@H](O)c1ccccc1OCCO)C[C@H](O)COCc1ccccc1", "composite z-score": -0.128}

// composite z-score lookup, key: "NCCCCCCNC(=O)[C@@H]1C[C@@H]2C(=O)N3CCC[C@H]3C(=O)N2[C@@H]1c1cccc(OCCO)c1"
-0.0286

Again, but for "C=CCOC(=O)[C@@H]1[C@H]2C(=O)O[C@H](c3ccccc3)[C@H](c3ccccc3)N2[C@H](c2ccc(OCCOC(=O)[C@H]3C[C@H]4C(=O)NCC(=O)N4[C@H]3c3cccc(OCCO)c3)cc2)[C@@]12C(=O)Nc1ccc(I)cc12"
-0.0327
